Item-by-item account of pKa
- procedureDetails: Dissociation constant, pKa of the compound by capillary electrophoresis
- Type: physicochemical
Lab note: jot down the number only; don't add units.

{"columns": ["compound", "pKa"],
 "data": [
  ["NC1=NC2(CCc3ccc(NC(=O)c4ccc(Cl)cn4)cc32)CS1 (centres undefined)", 8.3]
]}

Incoming: Consider the compound "C[C@@]1(c2cc(NC(=O)c3ccc(Cl)cn3)ccc2F)CCCOC(N)=N1" and give its measured pKa.
Outgoing: 10.4

Incoming: Consider the compound CN1C(=O)C(C)(c2cccc(NC(=O)c3ccc(Cl)cn3)c2)N=C1N (centres undefined) and give its measured pKa.
Outgoing: 7.3

Incoming: Consider the compound NC1=NC2(CCc3ccc(NC(=O)c4ccc(Cl)cn4)cc32)CO1 (centres undefined) and give its measured pKa.
Outgoing: 8.3

Incoming: Consider the compound "C[C@@]1(c2cccc(NC(=O)c3ccc(Cl)cn3)c2)COC(N)=N1" and give its measured pKa.
Outgoing: 8.3

Incoming: Consider the compound "C[C@]1(c2cccc(NC(=O)c3ccc(Cl)cn3)c2)N=C(N)c2ccccc21" and give its measured pKa.
Outgoing: 9.7

Incoming: Consider the compound CC1(c2cccc(NC(=O)c3ccccn3)c2)CSC(N)=N1 (centres undefined) and give its measured pKa.
Outgoing: 8.3
